src = patent US7348427B2

Tested on: E. faecalis ATCC 29212
Assay remarks: MIC, NCCLS broth microdilution assay
Format: cell-based, Enterococcus faecalis
Condition notes: C = E. faecalis ATCC 29212

Molecule	Target of assay	Minimum Inhibitory Concentration (MIC)
Cn1cc(NC(=O)c2cc(NC(=O)c3ccc(F)cc3F)cn2C)cc1C(=O)NCCN1CCOCC1 [Compound B-2]	E. faecalis ATCC 29212	+++ (+++ = MIC ≦ 4)
C[C@@H]1CCC[C@H](C)N1CCNC(=O)c1cc(NC(=O)c2cc(NC(=O)c3cc(NC(=O)c4ccc(F)cc4F)cn3C)cn2C)cn1C [Compound B-20]	E. faecalis ATCC 29212	+ (+ = 12 ≦ MIC ≦ 32)
Cn1cc(NC(=O)c2cc(NC(=O)c3ccc(F)cc3)cn2C)cc1C(=O)NCCN1CCOCC1 [Compound B-36]	E. faecalis ATCC 29212	>32 µg/mL
Cn1cc(NC(=O)c2cc(NC(=O)c3cc(NC(=O)c4ccc(F)cc4F)cn3C)cn2CCCO)cc1C(=O)NCCN1CCOCC1 [Compound C-4]	E. faecalis ATCC 29212	+ (+ = 12 ≦ MIC ≦ 32)
Cn1cc(NC(=O)c2cc(NC(=O)c3cc(NC(=O)c4ccc(F)cc4F)cn3C)cn2C)cc1C(=O)NCCN1CCC(F)CC1 [Compound B-29]	E. faecalis ATCC 29212	+++ (+++ = MIC ≦ 4)
Cn1cc(NC(=O)c2cc(NC(=O)c3cc(NC(=O)c4ccc(F)cc4F)cn3C)cn2C)cc1C(=O)NCCN1CCCCCC1 [Compound B-18]	E. faecalis ATCC 29212	+++ (+++ = MIC ≦ 4)
Cn1cc(NC(=O)c2cc(NC(=O)c3ccc(Cl)cc3F)cn2C)cc1C(=O)NCCN1CCOCC1 [Compound B-48]	E. faecalis ATCC 29212	+++ (+++ = MIC ≦ 4)
Cc1cc(NC(=O)c2cc(NC(=O)c3cc(NC(=O)c4ccc(Cl)cc4NCCCN4CCOCC4)cn3C)c[nH]2)sn1 [Compound C-25]	E. faecalis ATCC 29212	>32 µg/mL
Cn1cc(NC(=O)c2cc(NC(=O)c3cc(NC(=O)c4ccc(Cl)cc4F)c[nH]3)cn2C)cc1C(=O)NCCN1CCC(F)CC1 [Compound A-26]	E. faecalis ATCC 29212	+++ (+++ = MIC ≦ 4)
Cn1cc(NC(=O)c2cc(NC(=O)c3cc(NC(=O)c4ccc(Cl)cc4F)c[nH]3)cn2C)cc1C(=O)NCCN1CCSC1 [Compound A-29]	E. faecalis ATCC 29212	+ (+ = 12 ≦ MIC ≦ 32)
CN(C)CCCn1cc(NC(=O)c2cc(NC(=O)c3ccc(Cl)cc3F)cn2C)cc1C(=O)Nc1cc(C(=O)NCCN2CCOCC2)n(C)c1 [Compound D-25]	E. faecalis ATCC 29212	+++ (+++ = MIC ≦ 4)
Cn1cc(NC(=O)c2cc(NC(=O)c3ccc(C#N)cc3)cn2C)cc1C(=O)NCCN1CCOCC1 [Compound B-69]	E. faecalis ATCC 29212	+ (+ = 12 ≦ MIC ≦ 32)
Cn1cc(NC(=O)c2ccc(F)cc2F)cc1C(=O)Nc1cc(C(=O)Nc2cc(C(=O)OCCN3CCOCC3)n(C)c2)n(C)c1 [Compound B-10]	E. faecalis ATCC 29212	+++ (+++ = MIC ≦ 4)
Cn1cc(NC(=O)c2cc(NC(=O)c3cc(NC(=O)c4cc(NC(=O)c5ccccc5F)cn4C)cn3C)cn2C)cc1C(=O)NCCN1CCOCC1 [Compound B-44]	E. faecalis ATCC 29212	++ (++ = 4 < MIC < 12)
Cn1cc(NC(=O)c2cc(NC(=O)c3cc(NC(=O)c4ccc(Cl)cc4F)c[nH]3)cn2CCCO)cc1C(=O)NCCN1CCOCC1 [Compound C-14]	E. faecalis ATCC 29212	++ (++ = 4 < MIC < 12)
Cc1cc(NC(=O)c2cc(NC(=O)c3cc(NC(=O)c4ccc(Cl)cc4NCCN4CCSCC4)cn3C)c[nH]2)sn1 [Compound C-24]	E. faecalis ATCC 29212	++ (++ = 4 < MIC < 12)
Cn1cc(NC(=O)c2cc(NC(=O)c3cc(NC(=O)c4ccc(Cl)cc4)c[nH]3)cn2C)cc1C(=O)NCCN1CCOCC1 [Compound A-34]	E. faecalis ATCC 29212	++ (++ = 4 < MIC < 12)
C[C@@H]1CCC[C@H](C)N1CCNC(=O)c1cc(NC(=O)c2cc(NC(=O)c3cc(NC(=O)c4ccc(F)cc4F)c[nH]3)cn2C)cn1C [Compound A-10]	E. faecalis ATCC 29212	++ (++ = 4 < MIC < 12)
CN(C)CCCn1cc(NC(=O)c2cc(NC(=O)c3cc(NC(=O)c4ccc(F)cc4F)cn3C)cn2C)cc1C(=O)NCCN1CCCCC1 [Compound D-2]	E. faecalis ATCC 29212	+++ (+++ = MIC ≦ 4)
Cn1cc(NC(=O)c2cc(NC(=O)c3cc(NC(=O)c4ccc(F)cc4F)c[nH]3)cn2CCCO)cc1C(=O)NCCN1CCOCC1 [Compound C-5]	E. faecalis ATCC 29212	+ (+ = 12 ≦ MIC ≦ 32)
Cn1cc(NC(=O)c2cc(NC(=O)c3cc(NC(=O)c4ccc(Cl)cc4F)c[nH]3)cn2CCCCl)cc1C(=O)NCCN1CCOCC1 [Compound C-19]	E. faecalis ATCC 29212	+++ (+++ = MIC ≦ 4)
Cn1cc(NC(=O)c2cc(NC(=O)c3cc(NC(=O)c4ccccc4F)cn3C)cn2C)cc1C(=O)NCCN1CCSCC1 [Compound B-41]	E. faecalis ATCC 29212	+++ (+++ = MIC ≦ 4)
Cc1cc(NC(=O)c2cc(NC(=O)c3cc(NC(=O)c4ccc(Cl)cc4F)cn3C)cn2CCN2CCOCC2)sn1 [Compound D-8]	E. faecalis ATCC 29212	+++ (+++ = MIC ≦ 4)
Cc1cc(NC(=O)c2cc(NC(=O)c3cc(NC(=O)c4ccc(Cl)cc4F)c[nH]3)cn2CCN2CCOCC2)sn1 [Compound D-9]	E. faecalis ATCC 29212	+++ (+++ = MIC ≦ 4)
Cn1cc(NC(=O)c2cc(NC(=O)c3cc(NC(=O)c4ccc(F)cc4F)c[nH]3)c[nH]2)cc1C(=O)NCCN1CCOCC1 [Compound C-3]	E. faecalis ATCC 29212	++ (++ = 4 < MIC < 12)
CCN(CC)CCNC(=O)c1cc(NC(=O)c2cc(NC(=O)c3cc(NC(=O)c4ccc(Cl)cc4F)c[nH]3)cn2C)cn1C [Compound A-16]	E. faecalis ATCC 29212	+++ (+++ = MIC ≦ 4)
